experimental target: SCRIB_2, Q14160
Sequence (Q14160 857-960): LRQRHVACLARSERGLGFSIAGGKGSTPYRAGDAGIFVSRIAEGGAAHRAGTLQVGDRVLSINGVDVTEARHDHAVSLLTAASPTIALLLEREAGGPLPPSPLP
test details: holdup assay
Set-up: key: below the threshold = too weak to quantify, mostly under pKd 3.1 to 4
run conditions: plain residues with an end cap or a label only (N-terminal biotin on a linker: ttds)
Assignment: determine reported pKd for the given binders.

Ask: I would be grateful if you could share the reported pKd for SVWLRKETRV [CYSLTR2, Q9NS75] .
Reply: 4.42

Ask: I would be grateful if you could share the reported pKd for VLRLQSETSV [VANGL1, Q8TAA9] .
Reply: 4.72

Ask: I would be grateful if you could share the reported pKd for IDNDTESTAL [ARHGAP17, Q68EM7] .
Reply: 3.61

Ask: I would be grateful if you could share the reported pKd for SSRTRRETQL [HPV16-E6, P03126] .
Reply: 4.21

Ask: I would be grateful if you could share the reported pKd for GQDSREETQL [KCNT2, Q6UVM3] .
Reply: 3.83
